tested on: U251 CNS; assay: NCI tumour cell line growth inhibition, 48 h
recordedMetric: TGI

Answered examples (5):
Cc1ccc(S(=O)(=O)c2ccccc2)cc1    > 100 µM
COc1cc(/C=C(\NC(=O)c2ccccc2)c2nc3[nH]c(=S)[nH]c(=O)c3[nH]2)cc(OC)c1OC    > 100 µM
c1cc[n+](C2c3ccccc3C([n+]3ccccc3)c3ccccc32)cc1 (stereo unspecified)    > 90.8 µM
Cc1ccccc1OC(C)C(=O)NN1C(=O)CC(=O)NC1=S (stereo unspecified)    > 100 µM
Cc1cc2c(c(S(=O)(=O)c3ccc(Cl)cc3[N+](=O)[O-])c1)NCCC2    > 100 µM

Consider now this further compound.
Prompt: What TGI appears in the records for this compound with U251 CNS? `COc1cccc(C2=C(c3cn(C)c4ccc(Cl)cc34)C(=O)NC2=O)c1`
Completion: > 16.8 µM

----------
Known GI50 of a selection of compounds
tested on: UACC-62 melanoma; experiment: NCI tumour cell line growth inhibition, 48 h

Answered examples (4):
CSc1nc(-c2cc3ccccc3o2)cc(-c2ccc(Cl)cc2)c1C#N    5.03 µM
O=C(Cc1n[nH]c(=O)c2ccccc12)OCc1c(Cl)cccc1Cl    8.55 µM
CN[C@@H](C)C(=O)N[C@H]1CCS[C@H]2CC(C)(C)[C@@H](C(=O)N[C@H]3c4ccccc4C[C@H]3OCC#CC#CCO[C@@H]3Cc4ccccc4[C@@H]3NC(=O)[C@H]3N4C(=O)[C@@H](NC(=O)[C@H](C)NC)CCS[C@H]4CC3(C)C)N2C1=O    > 50 µM
O=C(c1ccco1)c1nc2ccc(Cl)cc2[n+]([O-])c1C(F)(F)F    > 100 µM

Prompt: What GI50 appears in the records for this compound with UACC-62 melanoma? `Nc1n[nH]c2cccc(C#Cc3cccc(NC(=O)c4ccc(N5CCOCC5)c(C(F)(F)F)c4)c3)c12`
Completion: 0.622 µM

----------
tested on: MDA-MB-435; assay: NCI tumour cell line growth inhibition, 48 h
recordedMetric: TGI

Answered examples (2):
CNC(=O)c1ccccc1Nc1cc(Nc2ccc(N3CCOCC3)cc2OC)ncc1C(F)(F)F    > 94.3 µM
Cc1cc(Cl)nc(Nc2nc3ccccc3[nH]2)n1    > 100 µM

Prompt: Please give the measured TGI for this molecule: CC(=O)OCC1OC(N2C(=O)NC(=O)C3C=C4CCCCC4=CC32)C(OC(C)=O)C1OC(C)=O (stereo not given)
Completion: > 100 µM

Prompt: Please give the measured TGI for this molecule: `Clc1cc(OC23CC4CC(CC(C4)C2)C3)nc(Cl)n1`
Completion: > 100 µM

Prompt: Please give the measured TGI for this molecule: `Cc1cc2c(c(S(=O)(=O)c3ccc(Cl)cc3[N+](=O)[O-])c1)NCCC2`
Completion: > 100 µM

----------
tested on: HOP-18 NSCLC; experiment: NCI tumour cell line growth inhibition, 48 h
Known TGI of a selection of compounds

Answered examples (2):
COc1cc2c(c(OC)c1OC)-c1ccc(SC)c(=O)cc1[C@@H](NCc1ccccc1[N+](=O)[O-])CC2    > 100 µM
Cc1cn(C2CC(OC3CCCCO3)C(CO)O2)c(=O)[nH]c1=O (stereo not drawn)    > 100 µM

Prompt: Please give the measured TGI for this compound: `C[C@H](C(=O)C12CC3CC(CC(C3)C1)C2)[C@H](O)c1ccccc1`
Completion: > 100 µM

----------
tested on: SW-620 colon; experiment: NCI tumour cell line growth inhibition, 48 h
recordedMetric: TGI

Prompt: What TGI appears in the records for this compound with SW-620 colon? `Cc1nnc2n1-c1ccccc1-c1[nH]c3ccccc3c1C2`
Completion: > 100 µM

Prompt: What TGI appears in the records for this compound with SW-620 colon? COC(=O)C1=C(O)C(C(=O)OC)[C@@]2(O)[C@@H](C(=O)OC)C(c3ccc(OC(=O)/C=C/c4ccccc4)cc3)C[C@@H]1[C@@H]2C(=O)OC (some centres undefined)
Completion: > 100 µM

Prompt: What TGI appears in the records for this compound with SW-620 colon? `COc1cccc(C2=C(c3cn(C)c4ccc(Cl)cc34)C(=O)NC2=O)c1`
Completion: > 25 µM

Prompt: What TGI appears in the records for this compound with SW-620 colon? COC(=O)C12C3C4(C(=O)OC)C1C1(C(=O)OC)C2C3(C(=O)OC)C41C(=O)N(C(C)C)C(C)C (centres undefined)
Completion: > 100 µM

----------
system: IGROV1 ovarian; test: NCI tumour cell line growth inhibition, 48 h
Known TGI of a selection of molecules

CC(C)(C)OC(=O)C1CCC/C1=N/Nc1ccc([N+](=O)[O-])cc1[N+](=O)[O-] (centres undefined)    > 100 µM
C=C(Cl)C(Cl)(CBr)CCCC(C)(C)Cl (centres undefined)    > 75.3 µM

Prompt: What TGI appears in the records for this molecule with IGROV1 ovarian? COc1ccccc1N1C(=O)CSC1c1c[nH]c2ccccc12 (centres undefined)
Completion: > 100 µM

Prompt: What TGI appears in the records for this molecule with IGROV1 ovarian? `Cc1cc(S(=O)(=O)n2cc[nH]c2=O)c(SCCCN(C)C)cc1Cl`
Completion: > 100 µM

----------
tested on: RPMI-8226 leukemia; assay: NCI tumour cell line growth inhibition, 48 h
Known log10 TGI of a selection of compounds
A difference of one corresponds to tenfold TGI; all values are log10 with TGI in µM.

Answered examples (2):
c1ccc2c(c1)c1c(n2CCOCCCN2CCCCC2)CCCC1    1.96
Clc1ccc2c(N3CCN(c4ccnc(NC5CCCCC5)n4)CC3)ccnc2c1    0.67

Prompt: Please give the measured log10 TGI for this compound: Clc1ccc(C(Cn2ccnc2)OCc2ccsc2Cl)c(Cl)c1 (configuration not stated)
Completion: 0.74

Prompt: Please give the measured log10 TGI for this compound: `COc1ccc(-c2cn[nH]c2-c2cc(OC)c(OC)c(OC)c2)cc1OCc1ccccc1`
Completion: 0.97

Prompt: Please give the measured log10 TGI for this compound: `Cc1ccc(N=C2SC(=S)N(CCC[N+](C)(C)C)C2=Nc2ccc(C)cc2)cc1`
Completion: 1.51

Prompt: Please give the measured log10 TGI for this compound: `COc1ccc2[nH]c3c(C)c4ccncc4c(C)c3c2c1`
Completion: 0.44

Prompt: Please give the measured log10 TGI for this compound: `CCCCCCCCCCC(=O)CC(=O)c1c(O)cccc1O`
Completion: 1.70

Prompt: Please give the measured log10 TGI for this compound: COc1ccc(C(C)c2cc3c(cc2O)OCO3)cc1 (configuration not stated)
Completion: 1.59

Prompt: Please give the measured log10 TGI for this compound: `O=c1cc(-c2ccccc2)nc(-n2[nH]c3c(c2=O)CCCC3)[nH]1`
Completion: 1.82

Prompt: Please give the measured log10 TGI for this compound: O=C1/C(=C\c2cccc(Oc3ccccc3)c2)SC(c2ccccc2)N1c1ccccc1Cl (configuration not stated)
Completion: 1.74

Prompt: Please give the measured log10 TGI for this compound: `Clc1ccc(COc2ccccc2/C=N/c2c(-c3ccco3)nc3ccccn23)c(Cl)c1`
Completion: 1.94

Prompt: Please give the measured log10 TGI for this compound: `O=C1C(=O)c2cc([N+](=O)[O-])ccc2-c2ccc([N+](=O)[O-])cc21`
Completion: 0.13

----------
test system: TK-10 renal; experiment: NCI tumour cell line growth inhibition, 48 h
recordedMetric: TGI (µM)
Could you give me the number in µM? Just the number is fine.

COc1cc(Nc2ccnc(NCCNc3ccnc4cc(Cl)ccc34)n2)cc(OC)c1    9.71

Consider now this further molecule.
Prompt: What TGI appears in the records for this molecule with TK-10 renal? CC1=C(C(=O)Nc2ccc(F)c(Cl)c2)C(c2cccc(Cl)c2)NC(=S)N1 (stereo not drawn)
Completion: 45.5

----------
system: HL-60(TB) leukemia; assay: NCI tumour cell line growth inhibition, 48 h
recordedMetric: TGI

Answered examples (2):
NC1=NC(=O)[C@H](Cc2c[nH]c3ccccc23)N1C(=O)OCc1ccccc1    > 100 µM
COc1nc(N)c(N=O)c(OCc2ccccc2)n1    > 10 µM

Prompt: What TGI appears in the records for this molecule with HL-60(TB) leukemia? O=C1/C(=C\c2cccc(Oc3ccccc3)c2)SC(c2ccccc2)N1c1ccccc1Cl (stereo not drawn)
Completion: > 100 µM

----------
system: K-562 leukemia; test: NCI tumour cell line growth inhibition, 48 h
Known TGI of a selection of compounds

Answered examples (4):
C=C1CC2(CC(c3ccccc3OC)OC(c3ccccc3OC)C2)OC1=O (stereo not given)    5.32 µM
c1cc[n+](C2c3ccccc3C([n+]3ccccc3)c3ccccc32)cc1 (stereo not given)    > 100 µM
O=[N+]([O-])c1ccc2c(c1)c1nn2CCCCOc2nn(c3ccc([N+](=O)[O-])cc23)CCCCO1    > 100 µM
CC(=O)OCC1OC(N2C(=O)NC(=O)C3C=C4CCCCC4=CC32)C(OC(C)=O)C1OC(C)=O (stereo not given)    > 100 µM

Consider now this further compound.
Prompt: Please give the measured TGI for this compound: `O=C1C=CC(O)(C#CCO)C=C1`
Completion: > 100 µM
